Values were extracted from PubChem BioAssay.

Experiment: viability rescue of complex I mutant cybrids, primary screen, cell-based, galactose medium, ATP luminescence (AID 1645843);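 also: positive z means more ATP and so rescue of galactose-driven cybrid death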
Conditions: complex I mutant cybrid cells, 72 h, stronger effect = higher value
Hi all, reminder that labels come from z-score, split as L (below -0.7), M (-0.7 to below 0.08), H (0.08 or more)

| compound | assigned_label |
| --- | --- |
| C=C(C)C1CC=C(C(=O)O)CC1 (stereo unspecified) | H |
| CCCCN(CCCC)CC(O)c1cc(Cl)cc2c1-c1ccc(Cl)cc1/C2=C/c1ccc(Cl)cc1 (stereo unspecified) | M |
| O=c1[nH]c(=O)n([C@H]2C[C@H](O)[C@@H](CO)O2)cc1Br | H |
| COc1ccc(CCN(C)CCCC(C#N)(c2cc(OC)c(OC)c(OC)c2)C(C)C)cc1OC (stereo unspecified) | M |
| CCCC(=O)OCOC(=O)C1=C(C)NC(C)=C(C(=O)OC)C1c1cccc(Cl)c1Cl (stereo unspecified) | L |
| O=C(/C=C/c1ccc(O)c(O)c1)O[C@H](Cc1ccc(O)c(O)c1)C(=O)O | M |
| CC(C)Cn1cnc2c(N)nc3ccccc3c21 | H |
| CN1CCN(C2Cc3ccccc3Sc3ccc(Cl)cc32)CC1 (stereo unspecified) | L |
| OC(CN1CCN(c2cccc(Cl)c2)CC1)C(c1ccccc1)c1ccccc1 (stereo unspecified) | L |
